The measurements presented in this section are drawn from patent US5491072A.

Biological target: horseradish peroxidase (Armoracia rusticana, UniProt P00433)
Sequence (P00433 31-338 limits assumed): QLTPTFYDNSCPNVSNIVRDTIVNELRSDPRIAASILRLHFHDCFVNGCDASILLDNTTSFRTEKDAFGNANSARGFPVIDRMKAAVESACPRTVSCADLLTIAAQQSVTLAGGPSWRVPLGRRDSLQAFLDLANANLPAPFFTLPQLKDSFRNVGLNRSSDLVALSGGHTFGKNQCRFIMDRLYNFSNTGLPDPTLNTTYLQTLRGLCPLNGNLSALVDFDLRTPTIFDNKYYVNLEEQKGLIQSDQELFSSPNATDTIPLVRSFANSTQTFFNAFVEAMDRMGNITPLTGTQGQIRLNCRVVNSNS
Assay: Comparison of compounds 1a-e at pH 8.9, time course and total intensity of chemiluminescence
Assay type: biochemical
Details: 0.01 mM acridan, 0.1M phosphate pH 8.9, 6.2 mM H2O2, 2.25 mM p-iodophenol, 0.5% Tween 20, 1 mM EDTA, 1×10^-13 mol HRP
Use 1 when the recorded I max (RLU), peak light intensity is no lower than 1000 RLU; use -1 when it is lower.

[
  {
    "COMPOUND": "CN1c2ccccc2C(C(=O)Oc2cccc(O)c2)c2ccccc21",
    "CATEGORY LABEL": -1
  },
  {
    "COMPOUND": "CN1c2ccccc2C(C(=O)Oc2ccccc2)c2ccccc21 [Compound 1a, Phenyl 10-methylacridan-9-carboxylate]",
    "CATEGORY LABEL": -1
  },
  {
    "COMPOUND": "Cc1ccc(S(=O)(=O)N(C(=O)C2c3ccccc3N(C)c3ccccc32)c2ccccc2)cc1",
    "CATEGORY LABEL": 1
  },
  {
    "COMPOUND": "CN1c2ccccc2C(C(=O)Oc2ccc(O)cc2)c2ccccc21",
    "CATEGORY LABEL": 1
  }
]

====

Target: UniProt:P00433
Sequence (P00433 31-338 limits assumed): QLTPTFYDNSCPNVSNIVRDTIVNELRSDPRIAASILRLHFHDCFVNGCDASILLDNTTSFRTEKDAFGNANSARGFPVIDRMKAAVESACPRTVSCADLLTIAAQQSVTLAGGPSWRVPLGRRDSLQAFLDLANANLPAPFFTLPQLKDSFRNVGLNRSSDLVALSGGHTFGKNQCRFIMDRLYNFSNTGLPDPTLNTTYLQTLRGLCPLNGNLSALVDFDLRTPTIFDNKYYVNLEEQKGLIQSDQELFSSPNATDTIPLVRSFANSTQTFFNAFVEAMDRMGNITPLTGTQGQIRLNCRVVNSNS
Assay: Improvement of detection by phenol enhancers
Assay type: biochemical, horseradish
Conditions: 2.25 mM enhancer, 0.1 mM 1b, 0.8 mM H2O2, 0.5% Tween 20, 0.1M tris pH 8.5, 25° C., 1×10^-15 mol HRP, 30 min

[
  {
    "COMPOUND": "Oc1ccc(I)cc1",
    "MEASURED ON": "UniProt:P00433",
    "S/B": 600
  },
  {
    "COMPOUND": "Oc1ccc(-c2ccccc2)cc1",
    "MEASURED ON": "UniProt:P00433",
    "S/B": 200
  },
  {
    "COMPOUND": "O=C(O)C=Cc1ccc(O)cc1 [p-hydroxycinnamic acid]",
    "MEASURED ON": "UniProt:P00433",
    "S/B": 9
  },
  {
    "COMPOUND": "Oc1ccc2ccccc2c1",
    "MEASURED ON": "UniProt:P00433",
    "S/B": 138
  }
]
